Where these numbers come from: the Immune Epitope Database (IEDB)

- target_or_test_system: HLA-A*03:01
- assay_info: IEDB peptide-MHC binding, purified MHC/competitive/fluorescence; filed as Kd, often an IC50 or EC50 that approximates it; bounds were set here for any values at or beyond the usual limits of such assays
- applied_conditions: source organism: Influenza A virus (A/Fort Monmouth/1/1947-mouse adapted(H1N1))
observed_property: pKd
Units for pKd: none; it is -log10 of a concentration expressed in mol/L.

Ask | Return reported pKd; argument: KFFPSSSYRR
Reply | 5.36

###

So I've got a bunch of sequences here, and I need their Kd values.
- target_or_test_system: HLA-B*08:01
- assay_info: IEDB peptide-MHC binding, purified MHC/competitive/radioactivity; filed as Kd, often an IC50 or EC50 that approximates it; bounds were set here for any values at or beyond the usual limits of such assays
- applied_conditions: source organism: Dengue virus 4 Philippines/H241/1956
Could you give me the number in µM? Just the number is fine.

Ask | Looking for the measured Kd of LLLMRTTWA , can you help?
Reply | 0.0185

Ask | Next entry: HALNELPESL
Reply | 3.74

###

- target_or_test_system: HLA-A*24:02
- assay_info: IEDB peptide-MHC binding, purified MHC/competitive/radioactivity; filed as Kd, often an IC50 or EC50 that approximates it; bounds were set here for any values at or beyond the usual limits of such assays
- applied_conditions: source organism: Lassa virus Josiah
observed_property: Kd (µM)
Report the value in µM with no unit label.

Ask | I am curious: what Kd value has been reported for GYCLTRWMLI ?
Reply | 1.1

###

- target_or_test_system: HLA-A*02:03
- assay_info: IEDB peptide-MHC binding, purified MHC/competitive/fluorescence; filed as Kd, often an IC50 or EC50 that approximates it; bounds were set here for any values at or beyond the usual limits of such assays
- applied_conditions: source organism: Plesiomonas shigelloides
observed_property: Kd

Ask | Record request: Kd value, item LLFRMILNY
Reply | ≥ 20 µM

###

I'd be grateful if you could share measured Kd for these entries.
- target_or_test_system: HLA-A*02:03
- assay_info: IEDB peptide-MHC binding, purified MHC/competitive/radioactivity; filed as Kd, often an IC50 or EC50 that approximates it; bounds were set here for any values at or beyond the usual limits of such assays
- applied_conditions: source organism: Dengue virus 2 Jamaica/1409/1983
Please reply with the bare figure in nM and do not write the unit itself.

Ask | Item under review: GLFGKGGIV . Reported Kd?
Reply | 11

Ask | Next sequence: FLIDGPETA
Reply | 12.8

Ask | Can you handle MMATIGIAL next?
Reply | 5.67

Ask | Try LLAIGCYSQV next.
Reply | 8.28

Ask | Note, next up: AMHTALTGA
Reply | 15.1

Ask | Similarly, TLTAALLLLV ?
Reply | 4.94

###

- target_or_test_system: HLA-A*23:01
- assay_info: IEDB peptide-MHC binding, purified MHC/competitive/radioactivity; filed as Kd, often an IC50 or EC50 that approximates it; bounds were set here for any values at or beyond the usual limits of such assays
- applied_conditions: source organism: Lymphocytic choriomeningitis virus (strain Armstrong)
pKd: −log10 of the molar value.
observed_property: pKd

Ask | Recorded pKd for YEDKVWDKY with HLA-A*23:01, please?
Reply | ≤ 4.11
